experimental_target: Aryl hydrocarbon receptor (Homo sapiens) (UniProt P35869)
Sequence (P35869 whole entry, looked up): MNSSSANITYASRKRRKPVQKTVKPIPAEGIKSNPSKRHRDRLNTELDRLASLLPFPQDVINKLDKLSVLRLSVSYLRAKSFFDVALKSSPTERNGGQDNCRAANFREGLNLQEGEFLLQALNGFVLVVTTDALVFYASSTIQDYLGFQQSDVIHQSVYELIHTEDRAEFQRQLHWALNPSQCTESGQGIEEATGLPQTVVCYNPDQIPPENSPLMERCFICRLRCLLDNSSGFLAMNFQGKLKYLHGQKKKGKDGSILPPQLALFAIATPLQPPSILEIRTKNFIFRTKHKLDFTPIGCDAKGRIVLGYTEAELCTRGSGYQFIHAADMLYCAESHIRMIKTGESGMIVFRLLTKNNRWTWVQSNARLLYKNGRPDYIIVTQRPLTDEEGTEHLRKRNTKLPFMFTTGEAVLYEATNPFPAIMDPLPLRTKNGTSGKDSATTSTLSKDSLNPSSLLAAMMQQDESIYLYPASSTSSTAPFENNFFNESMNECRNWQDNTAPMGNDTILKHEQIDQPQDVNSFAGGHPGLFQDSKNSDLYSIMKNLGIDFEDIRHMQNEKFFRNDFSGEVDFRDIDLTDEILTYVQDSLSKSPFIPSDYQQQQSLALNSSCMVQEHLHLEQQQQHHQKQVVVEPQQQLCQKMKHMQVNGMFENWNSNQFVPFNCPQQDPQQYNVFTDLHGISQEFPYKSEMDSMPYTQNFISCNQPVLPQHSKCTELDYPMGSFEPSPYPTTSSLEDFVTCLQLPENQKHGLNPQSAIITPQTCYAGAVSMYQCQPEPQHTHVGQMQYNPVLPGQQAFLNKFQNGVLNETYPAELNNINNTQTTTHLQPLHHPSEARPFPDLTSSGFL
assay_comment: qHTS assay to identify small molecule that activate the aryl hydrocarbon receptor (AhR) signaling pathway (AID 743085); also: nearly all actives have a fitted effect of over 15% in size;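 as to activation: HG2L7.5c1 human HepG2 liver cells with stably integrated DRE-driven firefly reporter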
measurement_parameters: HepG2 AhR-luc (HG2L7.5c1), luciferase, 24 h; series mostly up to 70.3 µM
From the text: U.S. Tox21 Program National Center for Advancing Translational Sciences [NCATS] NIH Chemical Genomics Center [NCGC] U.S. Environmental Protection Agency [EPA] National Institutes of Environmental Health Sciences [NIEHS] National Toxicology Program [NTP] U.S. Food and Drug Administration [FDA] Tox21 Assay overview: The Aryl hydrocarbon Receptor (AhR), a member of the family of basic helix-loop-helix transcription factors, is crucial to adaptive responses to environmental changes. […]
Results filed as inconclusive are left out. Activity calls are given as the source filed them. Calls follow the shape of the dose curve; as a rule, active = well fitted activation curve with a large enough effect in the repeat runs; inconclusive = weak or mixed curves; inactive = no such curve, though single readings can be large or run the other way.
One label from this list, please: t for active, f for inactive

Q. Which outcome did this test record for the molecule OCCN1C[C@H](O)[C@@H](O)[C@H](O)[C@H]1CO ?
A. f

Q. Which outcome did this test record for the molecule O=C(O)c1ccccc1-c1ccc(C(F)(F)F)cc1 ?
A. f

Q. Which outcome did this test record for the molecule C=CC(=O)OCCCCCC ?
A. f

Q. Which outcome did this test record for the molecule CCCCCN(CCCCC)C(=O)C(CCC(=O)O)NC(=O)c1ccc(Cl)c(Cl)c1 (stereo not drawn) ?
A. f

Q. Which outcome did this test record for the molecule C=CCOc1nc(OCC=C)nc(OCC=C)n1 ?
A. t

Q. Which outcome did this test record for the molecule CCOC(=O)Nc1ccc2c(c1)N(C(=O)CCN1CCOCC1)c1ccccc1S2 ?
A. f

Q. Which outcome did this test record for the molecule C1C2OC2C2C1C1CC2C2OC12 (stereo not drawn) ?
A. f

Q. Which outcome did this test record for the molecule CN(C)C(=O)Nc1ccccc1 ?
A. f

Q. Which outcome did this test record for the molecule CC(C)(O)c1ccccc1 ?
A. f

Q. Which outcome did this test record for the molecule C=CC(=O)N1CCOCC1 ?
A. f

Q. Which outcome did this test record for the molecule Nc1cc(C(Cl)=C(Cl)Cl)c(S(N)(=O)=O)cc1S(N)(=O)=O ?
A. f

Q. Which outcome did this test record for the molecule CCCCc1ccc(N)cc1 ?
A. f

Q. Which outcome did this test record for the molecule CCC(=O)c1cccc(Cl)c1 ?
A. f

Q. Which outcome did this test record for the molecule CCOC(=O)[C@H](CCc1ccccc1)N[C@@H](C)C(=O)N1CCC[C@H]1C(=O)O ?
A. f

Q. Which outcome did this test record for the molecule OCCCCCCO ?
A. f

Q. Which outcome did this test record for the molecule CCCCCCCCCCCCCCCCCC(=O)OCCCCCCCCCCCCCC(C)C ?
A. f

Q. Which outcome did this test record for the molecule COc1cccc(OC)c1 ?
A. f

Q. Which outcome did this test record for the molecule [O-][N+](=Nc1ccccc1)c1ccccc1 ?
A. t

Q. Which outcome did this test record for the molecule CCCCCCCCCCCl ?
A. f

Q. Which outcome did this test record for the molecule Fc1ccccc1-c1ccccc1 ?
A. f

Q. Which outcome did this test record for the molecule CC(=O)NC(Cc1ccccc1)C(=O)O (stereo not drawn) ?
A. f

Q. Which outcome did this test record for the molecule CC(C)(C)CC(C)(C)N ?
A. f

Q. Which outcome did this test record for the molecule OC[C@H]1O[C@@H]2O[C@H]3[C@H](O)[C@@H](O)[C@@H](O[C@H]4[C@H](O)[C@@H](O)[C@@H](O[C@H]5[C@H](O)[C@@H](O)[C@@H](O[C@H]6[C@H](O)[C@@H](O)[C@@H](O[C@H]7[C@H](O)[C@@H](O)[C@@H](O[C@H]8[C@H](O)[C@@H](O)[C@@H](O[C@H]9[C@H](O)[C@@H](O)[C@@H](O[C@H]1[C@H](O)[C@H]2O)O[C@@H]9CO)O[C@@H]8CO)O[C@@H]7CO)O[C@@H]6CO)O[C@@H]5CO)O[C@@H]4CO)O[C@@H]3CO ?
A. f

Q. Which outcome did this test record for the molecule O=C1C(CCS(=O)c2ccccc2)C(=O)N(c2ccccc2)N1c1ccccc1 (stereo not drawn) ?
A. f

Q. Which outcome did this test record for the molecule C1CCCCCCCCCCC1 ?
A. f

Q. Which outcome did this test record for the molecule CSc1ccc(C=O)cc1 ?
A. f

Q. Which outcome did this test record for the molecule OC1OC[C@@H](O)[C@H](O)[C@H]1O (stereo partly drawn) ?
A. f

Q. Which outcome did this test record for the molecule NC1CCN(c2cccc(Cl)n2)CC1 ?
A. f

Q. Which outcome did this test record for the molecule COCCOC(=O)CC#N ?
A. f

Q. Which outcome did this test record for the molecule COC(=O)CCCC(=O)O ?
A. f

Q. Which outcome did this test record for the molecule Cc1nc(-c2ccc(OCC(C)C)c(C#N)c2)sc1C(=O)O ?
A. t

Q. Which outcome did this test record for the molecule CN(C)CCOC(c1ccc(Cl)cc1)c1ccccn1 (stereo not drawn) ?
A. f

Q. Which outcome did this test record for the molecule O=[N+]([O-])c1ccc(Oc2ccc([N+](=O)[O-])cc2)cc1 ?
A. f

Q. Which outcome did this test record for the molecule CCCCCC[C@@H](CCC)C(=O)O ?
A. f

Q. Which outcome did this test record for the molecule O=C(O)c1ccc[n+]([O-])c1 ?
A. f

Q. Which outcome did this test record for the molecule CCC(C(=O)NC(N)=O)c1ccccc1 (stereo not drawn) ?
A. f

Q. Which outcome did this test record for the molecule CC/C=C\CCCCO ?
A. f

Q. Which outcome did this test record for the molecule CC(C)(O)C(=O)c1ccc(OCCO)cc1 ?
A. f

Q. Which outcome did this test record for the molecule CCCCCCC(=O)OCC ?
A. f

Q. Which outcome did this test record for the molecule CCN1CCCC(OC(=O)C(c2ccccc2)c2ccccc2)C1 (stereo not drawn) ?
A. f

Q. Which outcome did this test record for the molecule CC(C)(C)C(=O)/C=C/c1ccc(Cl)cc1 ?
A. f

Q. Which outcome did this test record for the molecule N[C@@H](CS)C(=O)O ?
A. f

Q. Which outcome did this test record for the molecule CCOC(=O)Cn1c(=O)sc2cccc(Cl)c21 ?
A. t

Q. Which outcome did this test record for the molecule COC[C@H](c1ccc(C(F)(F)F)cc1)N1CCN(C2(C)CCN(C(=O)c3c(C)ncnc3C)CC2)C[C@H]1C ?
A. f

Q. Which outcome did this test record for the molecule CC(C)=CCC/C(C)=C/C(=O)O ?
A. f

Q. Which outcome did this test record for the molecule O=C(O)/C=C/c1ccc(Cn2ccnc2)cc1 ?
A. f

Q. Which outcome did this test record for the molecule CCC(=O)Nc1cccc(N)c1 ?
A. f

Q. Which outcome did this test record for the molecule CC(C=O)Cc1ccc(C(C)C)cc1 (stereo not drawn) ?
A. f

Q. Which outcome did this test record for the molecule NC(CS)C(=O)O (stereo not drawn) ?
A. f

Q. Which outcome did this test record for the molecule CNc1ncnc2nc[nH]c12 ?
A. f

Q. Which outcome did this test record for the molecule CCCCCCCCCCCCCCCCCCOCC(O)CO (stereo not drawn) ?
A. f

Q. Which outcome did this test record for the molecule CCN(CC)C(=O)c1ccc(O)c(OC)c1 ?
A. f

Q. Which outcome did this test record for the molecule Cc1nccn1CC1CCc2c(c3ccccc3n2C)C1=O (stereo not drawn) ?
A. f

Attribution: PubChem BioAssay (Tox21)
